Catalogue of GI50 values
- Tested on: RPMI-8226 leukemia
- protocol summary: NCI tumour cell line growth inhibition, 48 h

Example entries begin here.
O=C1NC(=O)C(c2cccc(Cl)c2)=C1Nc1ccc(O)c(Cl)c1: 14000 nM
CC1(C)N=C(N)N=C(N)N1c1ccc(CCCCc2ccc(S(=O)(=O)F)cc2)c(Cl)c1: 283 nM
C/C1=C\[C@@H](O)C(=O)/C=C/C=C\c2csc(n2)[C@@H](C)NC(=O)C[C@@]2(CC1)S(=O)SC(=O)[C@]2(C)O (some centres not stated): > 100000 nM
Nc1ccc(-c2nc3ccccc3[nH]2)c2ccccc12: 2640 nM
CC(C)(C)CN1CCn2c(nc3c(N)nccc32)S1: 36100 nM

Exercise: I would be grateful if you could share the reported GI50 for `CN1CCN(Cc2ccc(NC(=O)c3[nH]ncc3Nc3ncnc4sc5c(c34)CCCC5)cc2)CC1` .
Key: 370 nM

Exercise: Continue with `N#CN1CC[C@H](C(=O)Nc2ncc(-c3ccncc3)s2)C1`
Key: < 20.1 nM

Exercise: Next compound up: CCN1C(=O)N(CC)C2C1NN=c1s/c(=C3\C(=O)N(CCc4ccccc4)c4ccccc43)c(=O)n12 (configuration not stated)
Key: 608 nM

Exercise: Please do the same for COc1ccc2cc(-c3c(-c4ccncc4)nc(-c4ccc(S(C)=O)cc4)n3C)ccc2c1 (configuration not stated) as well.
Key: 17000 nM

Exercise: Also need O=c1[nH]cnc2c(C3NC(CO)C(O)C3O)c[nH]c12 (configuration not stated) , thanks.
Key: > 100000 nM

Exercise: Same read-out for `CN1CCC(n2cnc(-c3ccc(F)cc3)c2-c2ccnc(N)n2)CC1` ?
Key: 16600 nM

Exercise: Check COc1ccc2c(c1)OC1=C(C(=O)OC1)C2c1cc(OC)c2c(c1)OCO2 (configuration not stated) too.
Key: 48.7 nM
